Where do the numbers come from? From paper PMC9249544.

# subject.of.test: Protein tyrosine phosphatase 1B (PTP1B) (Homo sapiens, UniProt P18031)
# Construct: gene PTPN1
# Sequence (P18031 1-435): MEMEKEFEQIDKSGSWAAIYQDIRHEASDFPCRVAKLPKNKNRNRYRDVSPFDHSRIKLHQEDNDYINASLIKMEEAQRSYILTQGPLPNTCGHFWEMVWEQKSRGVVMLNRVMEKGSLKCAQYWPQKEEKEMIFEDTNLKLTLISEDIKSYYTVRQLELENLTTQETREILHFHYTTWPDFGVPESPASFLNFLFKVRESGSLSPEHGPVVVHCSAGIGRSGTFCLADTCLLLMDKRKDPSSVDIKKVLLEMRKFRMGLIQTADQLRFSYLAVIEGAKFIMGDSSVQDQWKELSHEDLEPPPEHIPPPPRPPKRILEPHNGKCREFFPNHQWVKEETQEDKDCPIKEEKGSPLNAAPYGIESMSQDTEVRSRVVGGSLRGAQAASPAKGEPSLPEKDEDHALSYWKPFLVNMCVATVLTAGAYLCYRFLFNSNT
# test.description: p-NPP hydrolysis assay with human recombinant PTP1B ([…] nm); Lineweaver-Burk kinetics
# Type: biochemical
quantity: IC50 (µM)
Report the value in µM with no unit label.

Fill in: IC50 of O=c1cc(-c2ccc(O)c(O)c2)oc2c([C@@H]3O[C@H](CO)[C@@H](O)[C@H](O)[C@H]3O)c(O)cc(O)c12 is ___ 401
